System: 621-103 (TSC2-rescued);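 further: immortalized renal angiomyolipoma cells stably carrying empty vector or TSC2, dosed in 384-well plates in DMEM, viability normalized to vehicle-treated wells within each plate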
assay remarks: relative viability vs DMSO; higher = less cytotoxic
assay setup: 0.001 µM; serum: 10% FBS; 72 h
Where a name gives a salt, the structure may show the parent alone.
endpoint: relative viability (%)

>>> result_value("Cc1cccc(-c2[nH]c(C(C)(C)C)nc2-c2ccc3nccnc3c2)n1")
99.6
>>> result_value("CO[C@H]1C[C@@H]2CC[C@@H](C)[C@@](O)(O2)C(=O)C(=O)N2CCCC[C@H]2C(=O)O[C@H]([C@H](C)C[C@@H]2CC[C@@H](OP(C)(C)=O)[C@H](OC)C2)CC(=O)[C@H](C)/C=C(\\C)[C@@H](O)[C@@H](OC)C(=O)[C@H](C)C[C@H](C)/C=C/C=C/C=C/1C")
64.2
>>> result_value("COc1cc2nccc(Oc3ccc(NC(=O)Nc4cc(C)on4)c(Cl)c3)c2cc1OC")
104
>>> result_value("COC(=O)N1CCN(Cc2cccc(NC(=O)Nc3ccc(C)nc3)c2F)CC1")
111
>>> result_value("CC(C)(Cc1ccc2ccccc2c1)NC[C@@H](O)COc1cccc(Cl)c1C#N")
102
>>> result_value("Clc1cccc(Cl)c1NC1=NCCN1 [Clonidine HCl (Catapres)]")
92.5
>>> result_value("Cn1c(N2CCCCS2(=O)=O)nc(C(=O)NCc2ccc(F)cc2)c(O)c1=O")
106
>>> result_value("CCCN[C@H]1CCc2nc(N)sc2C1 [Pramipexole dihydrochloride monohydrate]")
95.6
>>> result_value("O=C(O)/C=C/c1ccc(Cn2ccnc2)cc1")
112
>>> result_value("Cc1ccc(C(=O)N(CCCN)[C@@H](c2nc3cc(Cl)ccc3c(=O)n2Cc2ccccc2)C(C)C)cc1 [Ispinesibmesilate]")
51.8
>>> result_value("COc1ccc([C@]2(C#N)CC[C@@H](C(=O)O)CC2)cc1OC1CCCC1")
98
>>> result_value("C[C@@H](Oc1cc(-n2cnc3ccc(CN4CCN(C)CC4)cc32)sc1C(N)=O)c1ccccc1C(F)(F)F")
71.9
>>> result_value("Cc1ccc(NC(=O)c2ccc(CN3CCN(C)CC3)cc2)cc1Nc1nc(-c2cccnc2)cs1")
105
>>> result_value("CC[C@H]1OC(=O)[C@H](C)[C@@H](O[C@H]2C[C@@](C)(OC)[C@@H](O)[C@H](C)O2)[C@H](C)[C@@H](O[C@@H]2O[C@H](C)C[C@H](N(C)C)[C@H]2O)[C@](C)(OC)C[C@@H](C)C(=O)[C@H](C)[C@@H](O)[C@]1(C)O")
91.4
>>> result_value("CNCCC(Oc1ccc(C(F)(F)F)cc1)c1ccccc1 (stereo not given) [Fluoxetine HCl]")
109
>>> result_value("CO[C@H]1C[C@@H]2CC[C@@H](C)[C@@](O)(O2)C(=O)C(=O)N2CCCC[C@H]2C(=O)O[C@H]([C@H](C)C[C@@H]2CC[C@@H](OC(=O)C(C)(CO)CO)[C@H](OC)C2)CC(=O)[C@H](C)/C=C(\\C)[C@@H](O)[C@@H](OC)C(=O)[C@H](C)C[C@H](C)/C=C/C=C/C=C/1C")
75.1
>>> result_value("O=C(Cc1ccc(-c2ccc(OCCN3CCOCC3)cc2)cn1)NCc1ccccc1")
96.4
>>> result_value("COc1cc2ncnc(Nc3cccc(Br)c3)c2cc1OC")
102
>>> result_value("CN(c1ncccc1CNc1nc(Nc2ccc3c(c2)CC(=O)N3)ncc1C(F)(F)F)S(C)(=O)=O")
94.4
>>> result_value("CC(/C=C/C(=O)NO)=C\\[C@@H](C)C(=O)c1ccc(N(C)C)cc1")
101
